Values from PubChem BioAssay (Tox21)

experiment: qHTS assay to identify small molecule agonists of the estrogen receptor alpha (ER-alpha) signaling pathway in the presence of an antagonist - cell viability counter screen (AID 1259386); settings: VM7Luc4E2 viability, CellTiter-Fluor fluorescence, 22 h; series mostly up to 92.4 µM;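 also: cells exposed to compounds for 22 h at 37 °C before the viability read; nearly all actives have a fitted effect of over 30% in size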
Inconclusive results are not listed. Activity calls are given as the source filed them. Calls follow the shape of the dose curve; as a rule, active = well fitted cell-killing curve with a large enough effect in the repeat runs; inconclusive = weak or mixed curves, or effect the other way; inactive = no such curve, though single readings can be large or run the other way.
Your answer must be one of the following: active, inactive

Worked set:
compound: Nc1nc2ccccc2n1Cc1ccc(F)cc1
label: active
--
compound: CCCCCCCCOC(=O)c1ccc(O)cc1
label: inactive
--
compound: CCN(CC)CCNC(=O)c1c(C)[nH]c(/C=C2\C(=O)Nc3ccc(F)cc32)c1C
label: active
--
compound: NNc1nc(-c2ccc([N+](=O)[O-])cc2)cs1
label: active
--
compound: CC(C)(C)NC(=O)[C@@H]1C[C@@H]2CCCC[C@@H]2CN1C[C@@H](O)[C@H](Cc1ccccc1)NC(=O)[C@H](CC(N)=O)NC(=O)c1ccc2ccccc2n1
label: active
--
compound: O=C(O)c1c(Cl)cccc1Cl
label: inactive
--
compound: CCCCN1CCCC[C@H]1C(=O)Nc1c(C)cccc1C
label: inactive
--
compound: CCN(CCC#N)c1ccc(N=Nc2c(Cl)cc([N+](=O)[O-])cc2Cl)cc1
label: active

Prompt: Outcome? CCCCCCCCCCC=O
Completion: inactive

Prompt: Outcome? O=C(NO)C1(NS(=O)(=O)c2ccc(Oc3ccc(F)cc3)cc2)CCOCC1
Completion: inactive

Prompt: Outcome? C[C@H]1[C@H]2CC[C@H]3[C@@H]4CC=C5C[C@@H](N(C)C)CC[C@]5(C)[C@H]4CC[C@]23CN1C
Completion: inactive

Prompt: Outcome? Cc1onc(-c2c(Cl)cccc2Cl)c1C(=O)N[C@@H]1C(=O)N2[C@@H]1SC(C)(C)[C@@H]2C(=O)O
Completion: inactive

Prompt: Outcome? OCCCCCCCCCCCCBr
Completion: inactive

Prompt: Outcome? CC(C)OC(=O)c1cc2c(OCC(O)CNC(C)(C)C)cccc2[nH]1 (configuration not stated)
Completion: inactive

Prompt: Outcome? CCOC(=O)c1nc(C(Cl)(Cl)Cl)n(-c2ccc(Cl)cc2Cl)n1
Completion: inactive

Prompt: Outcome? C[C@@H](NCCCc1cccc(C(F)(F)F)c1)c1cccc2ccccc12
Completion: inactive
